SYSTEM TESTED: human AR (Homo sapiens)
Sequence (P10275 1-920): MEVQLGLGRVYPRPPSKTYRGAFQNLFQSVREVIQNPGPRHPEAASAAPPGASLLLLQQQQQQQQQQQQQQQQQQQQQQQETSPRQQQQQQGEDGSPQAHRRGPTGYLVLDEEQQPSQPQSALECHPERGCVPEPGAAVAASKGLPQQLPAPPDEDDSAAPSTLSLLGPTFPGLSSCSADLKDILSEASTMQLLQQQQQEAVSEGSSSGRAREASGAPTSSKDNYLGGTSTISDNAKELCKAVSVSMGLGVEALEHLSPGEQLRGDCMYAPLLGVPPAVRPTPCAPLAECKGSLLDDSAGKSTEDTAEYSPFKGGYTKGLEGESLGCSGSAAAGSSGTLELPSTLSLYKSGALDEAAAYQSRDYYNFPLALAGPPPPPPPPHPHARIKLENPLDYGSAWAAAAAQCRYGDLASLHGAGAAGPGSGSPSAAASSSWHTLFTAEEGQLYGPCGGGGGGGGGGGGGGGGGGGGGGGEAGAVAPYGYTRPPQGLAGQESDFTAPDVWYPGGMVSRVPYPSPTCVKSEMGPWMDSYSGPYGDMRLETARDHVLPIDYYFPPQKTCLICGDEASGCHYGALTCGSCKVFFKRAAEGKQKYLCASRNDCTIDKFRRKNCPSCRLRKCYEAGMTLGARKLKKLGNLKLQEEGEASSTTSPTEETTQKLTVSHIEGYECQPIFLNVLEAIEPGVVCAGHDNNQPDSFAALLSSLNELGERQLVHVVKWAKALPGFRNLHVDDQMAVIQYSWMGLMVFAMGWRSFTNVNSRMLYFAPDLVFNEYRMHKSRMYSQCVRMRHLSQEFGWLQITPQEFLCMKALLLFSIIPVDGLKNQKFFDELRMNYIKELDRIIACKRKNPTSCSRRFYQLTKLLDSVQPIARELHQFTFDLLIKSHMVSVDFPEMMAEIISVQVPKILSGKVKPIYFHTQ
PROTOCOL: Co-transfection assay, AR antagonist activity (CV-1 cells, in presence of DHT)
Assay type: cell-based
CONDITIONS USED: CV-1 cells; percent maximal inhibition, DHT at its EC50

{"columns": ["MOLECULE", "AR Antagonist CV-1 Cells Efficacy (%)"],
 "data": [
  ["CS(=O)(=O)N(CC(F)(F)F)c1ccc2[nH]c(=O)cc(C(F)(F)F)c2c1 [Compound 295]", 49],
  ["Cn1c(=O)cc(C(F)(F)F)c2ccc(NCC(F)(F)F)cc21 [Compound 532]", 85],
  ["CC(C)c1ccc2c(c1)CN(C)C(=O)N2 [Compound 721]", 85],
  ["CC(C)(C)Nc1ccc2[nH]c(=O)cc(C(F)(F)F)c2c1 [Compound 307]", 43],
  ["O=c1cc(C(F)(F)F)c2cc(N(Cc3ccccc3)Cc3ccccc3)ccc2[nH]1 [Compound 272]", 67]
]}
